Just for reference, ChEMBL document CHEMBL1147360 is where these values come from.

Test system: Calf thymus DNA
Assay: Binding affinity to calf thymus DNA
Type: nucleic-acid assay, Bos taurus
property measured: Kd (µM)
Give just the number in µM; leave the unit off.

# lookup: C/C=C(\C)C(=O)OC(C)CC1CCCN1C(=O)CCCCCCCCC (stereo unspecified) [CONIOIDINE A] on Calf thymus DNA, Kd = 2.8
